# test: Partition coefficient (logP)
# Format: physicochemical
# cond: octanol/water

smiles_record: Cn1cc(-c2ccc(Cl)cc2)c(N2CCOCC2)c1
logP: 4.2
//
smiles_record: N#Cc1[nH]cc(-c2ccc(Cl)cc2)c1N1CCOCC1
logP: 3.5
//
smiles_record: CCS(=O)(=O)n1cc(-c2ccc(Cl)cc2)c(N2CCOCC2)c1C(=O)OC
logP: 4.2
//
smiles_record: O=C(c1[nH]cc(-c2ccc(Cl)cc2)c1N1CCOCC1)N1CCOCC1
logP: 3.1
//
smiles_record: COC(=O)c1[nH]cc(-c2ccc(Br)cc2)c1N1CCOCC1
logP: 3.8
//
smiles_record: CCCNC(=O)c1[nH]cc(-c2ccc(Cl)cc2)c1N1CCOCC1
logP: 4.2
//
smiles_record: C=CCNC(=O)c1[nH]cc(-c2ccc(Cl)cc2)c1N1CCOCC1
logP: 3.7
//
smiles_record: O=C(O)c1[nH]cc(-c2ccc(Cl)cc2)c1N1CCOCC1
logP: 1.8
//
smiles_record: COC(=O)c1[nH]cc(-c2ccccc2C)c1N1CCOCC1
logP: 2.8
//
smiles_record: COC(=O)c1[nH]cc(-c2ccc(Cl)cc2)c1N1CCOCC1
logP: 3.5
//
smiles_record: Cn1cc(-c2ccc(Cl)cc2)c(N2CCOCC2)c1C(=O)O
logP: 2.3
